assay: Functional metabolic assay to measure dose dependent changes in cell viability from drug treatment in HeLa cells. Cells are treated with antiviral candidates that have been serially diluted. Cytotoxicity is reported via analysis of MTT/MTS assays in uninfected cells. The assay has been performed by KU Leuven.; format: toxicity, cell-based; conditions: human, HeLa cells
endpoint: CC50

Retrieve CC50 measured for "O=C(Nc1ccc2c(c1)CNC2)c1ccnc2[nH]ccc12" and print it.
> 50 µM

* * *

test: Functional metabolic assay to measure dose dependent changes in cell viability from drug treatment in Vero E6/TMPRSS2 cells (cotreated with P-gp inhibitor, Elacridar). […] Cytotoxicity is reported via measuring absorbance and analysis of MTT/MTS assays in uninfected cells. The assay has been performed by Icahn School of Medicine at Mount Sinai.; format: toxicity, cell-based, VeroE6/TMPRSS2; settings: chlorocebus sabaeus, Vero E6/TMPRSS2 cells, with Elacridar (P-gp inhibitor, concentration not stated); p-gp concentration 2 uM
Measured CC50 accompanies every entry in the list below.

Before answering, review these 2 worked examples.
- CC(C)c1nc2c(C(=O)Nc3ccc4c(c3)CNC4)cc(Br)cc2[nH]1: 19.2 µM
- NCc1cccc(NC(=O)C[C@H](NC(=O)OCc2ccccc2)c2ccc(OCc3ccccc3)c(Br)c2)c1: 38.4 µM

Retrieve CC50 measured for "O=C(Nc1ccc2c(c1)CNC2)c1cc(Br)cc2[nH]c(Cc3ccccc3)nc12" and print it.
16.5 µM

Retrieve CC50 measured for "Cc1c(C(=O)Nc2cc(-c3cccnc3)ccn2)cc(C2CC2)n1C" and print it.
> 50 µM

Retrieve CC50 measured for "CC[C@H](Cc1nnn[nH]1)c1ccc(NC(=O)c2cc(Cl)cc(C3CC3)c2)cc1" and print it.
> 50 µM

Retrieve CC50 measured for "N#CCCNC(=O)[C@H](Nc1ccc2c(c1)CNC2)c1cc(Cl)cc(C2CC2)c1" and print it.
> 50 µM

Retrieve CC50 measured for "O=C(NCC(F)F)[C@H](Nc1ccc2c(c1)CNC2)c1cc(Cl)cc(C2CC2)c1" and print it.
> 50 µM

Retrieve CC50 measured for "Cc1c(C(=O)Nc2cc([C@H]3CCOC3)ccn2)cc(C2CC2)n1C" and print it.
> 50 µM

Retrieve CC50 measured for "CC(C)Cc1nc2c(C(=O)Nc3ccc4c(c3)CNC4)cc(Br)cc2[nH]1" and print it.
20.9 µM

Retrieve CC50 measured for "CCOC(=O)[C@H]1[C@H](c2cc(Cl)cc(NC(=O)OCc3ccccc3)c2)[C@H]1c1cccc(-c2nnn[nH]2)c1" and print it.
> 50 µM

Retrieve CC50 measured for "CCCC[C@H](NC(C)=O)C(=O)N[C@H](C(=O)NCc1ccc(C(N)=O)cc1)c1ccc(OCc2ccccc2)cc1" and print it.
> 50 µM

Retrieve CC50 measured for "c1ccc2sc(C3CCN(Cc4c[nH]c5ccccc45)CC3)nc2c1" and print it.
49.2 µM

Retrieve CC50 measured for "CC[C@H](Cc1nnn[nH]1)c1ccc(NC(=O)[C@H]2[C@H]3CCCCC[C@H]3[C@H]2NC(=O)OCc2ccccc2)cc1" and print it.
> 50 µM

Retrieve CC50 measured for "CNC(=O)[C@H](Nc1cc(Cl)cc(NC(=O)OCc2ccccc2)c1)c1cccc(-c2nn[nH]n2)c1" and print it.
> 50 µM

Retrieve CC50 measured for "Cc1[nH]c2ccccc2c1CN1CCC(c2c[nH]c3ncccc23)CC1" and print it.
> 10 µM

Retrieve CC50 measured for "NCc1cccc(NC(=O)[C@H]2[C@H]3CCCCC[C@H]3[C@H]2NC(=O)OCc2ccccc2)c1" and print it.
10.3 µM

Retrieve CC50 measured for "O=C(Nc1cc(Cl)cc(C(=O)Nc2cccc(C3CCNCC3)c2)c1)OCc1ccccc1" and print it.
> 10 µM

Retrieve CC50 measured for "CC(C)(C)NC(=O)[C@H](Nc1cccc(-c2nn[nH]n2)c1)c1cc(Cl)cc(NC(=O)OCc2ccccc2)c1" and print it.
> 50 µM

Retrieve CC50 measured for "C=CC[C@H](Nc1cc(Cl)cc(NC(=O)OCc2ccccc2)c1)c1cccc(-c2nn[nH]n2)c1" and print it.
> 50 µM

Retrieve CC50 measured for "C[C@@H](N)c1cccc(NC(=O)[C@H]2[C@H]3CCCCC[C@H]3[C@H]2NC(=O)OCc2ccccc2)c1" and print it.
> 50 µM

Retrieve CC50 measured for "Cn1cc(CNC(=O)[C@H](Nc2ccc3c(c2)CNC3)c2cc(Cl)cc(C3CC3)c2)cn1" and print it.
> 50 µM

Retrieve CC50 measured for "Clc1ccc2[nH]cc(Cc3ccc(-c4nn[nH]n4)cc3)c2c1" and print it.
> 50 µM

Retrieve CC50 measured for "O=C(Nc1ccc2c(c1)CNC2)c1cc(Br)cc2[nH]ncc12" and print it.
> 50 µM

Retrieve CC50 measured for "O=C1Cc2c(cc(Br)cc2C(=O)Nc2ccc3c(c2)CNC3)N1" and print it.
> 50 µM

* * *

Measured CC50 accompanies every entry in the list below.
experiment: Functional assay to measure dose dependent changes in cell viability from drug treatment in Vero E6 miRFP670 cells (cotreated with P-gp inhibitor, CP100356) that are infected with Dengue virus type 2 New Guinea C. […] Cytotoxicity is reported via via analysis of DAPI count using high-content imager. The assay has been performed by KU Leuven.; assay type: toxicity, cell-based, Vero C1008; settings: chlorocebus sabaeus, with CP100356 (P-gp inhibitor, concentration not stated); p-gp concentration 500 nM
Write the answer as a number in µM, unit excluded.

Before answering, review these 4 worked examples.
* CN(c1ccc2c(c1)CNC2)[C@H](C(=O)NCC(F)F)c1cc(Cl)cc(C2CC2)c1 | 14.3
* O=C(Nc1cc2c(cc1Br)CNC2)c1cc(Cl)cc2[nH]ncc12 | 13.5
* Cc1cc(C(=O)Nc2ccc3c(c2)CNC3)c2cn[nH]c2c1 | 24
* Clc1ccc2[nH]cc(Cc3ccc(-c4nn[nH]n4)cc3)c2c1 | 19.3

Now, please, on to the next molecule.
Retrieve CC50 measured for "O=C(Nc1cc2c(cc1C1CC1)CNC2)c1cc(F)cc2[nH]ncc12" and print it.
10.1

* * *

experiment: Functional assay to measure dose dependent changes in cell viability from drug treatment in Vero E6 miRFP670 cells (cotreated with P-gp inhibitor, CP100356) that are infected with Dengue virus type 2 New Guinea C. […] Cytotoxicity is reported via via analysis of DAPI count using high-content imager. The assay has been performed by KU Leuven.; type: toxicity, cell-based, Vero C1008; conditions: chlorocebus sabaeus, with CP100356 (P-gp inhibitor, concentration not stated); p-gp concentration 500 nM
Measured log10 of CC50 accompanies every entry in the list below.
Heads up, the numbers here are log10 of CC50 in µM units.

• N[C@H]1CC[C@H](c2ccc(NC(=O)c3cc(Cl)cc(NC(=O)OCc4ccccc4)c3)cc2)C1 = 0.45
• COc1ccccc1-c1nc2c(C(=O)Nc3ccc4c(c3)CNC4)cc(F)cc2[nH]1 = 1.19
• O=C(Nc1cc(Cl)cc(C(=O)NCc2ccc(-c3nnn[nH]3)cc2)c1)OCc1ccccc1 = 0.51
• O=C(Nc1cc(Cl)cc(-c2ccc3[nH]nc(C(=O)O)c3c2)c1)OCc1ccccc1 = 1.13
• O=C(Nc1cc(Cl)cc(C(=O)Nc2ccc3c(c2)CNCC3)c1)OCc1ccccc1 = 0.51

Retrieve log10 of CC50 measured for "O=C(Nc1ccc2c(c1)CN[C@H]2CC1CC1)c1cc(F)cc2[nH]ncc12" and print it.
1.27

Retrieve log10 of CC50 measured for "NCc1cccc(-c2csc3cc(C(=O)Nc4ccc5c(c4)CNC5)ccc23)c1" and print it.
0.55

Retrieve log10 of CC50 measured for "O=C(Nc1cc(Cl)cc([C@H]2C[C@@H]2c2cccc(-c3nnn[nH]3)c2)c1)OCc1ccccc1" and print it.
1.21

Retrieve log10 of CC50 measured for "O=C(Nc1cc(Cl)cc(-c2ccc3cc(C(=O)O)[nH]c3c2)c1)OCc1ccccc1" and print it.
1.39

Retrieve log10 of CC50 measured for "O=C(NCC(F)F)[C@H](Nc1ccc2c(c1)CNC2)c1cc(F)cc2[nH]ccc12" and print it.
1.49

* * *

Measured CC50 accompanies every entry in the list below.
experiment: Functional CPE-based assay to measure dose dependent changes in cell viability from drug treatment in Vero E6 miRFP670 cells (cotreated with P-gp inhibitor, CP100356). Cells are treated with antiviral candidates that have been serially diluted. Cytotoxicity is reported via analysis of MTS assays in uninfected cells. The assay has been performed by KU Leuven.; type: toxicity, Vero C1008; conditions: chlorocebus sabaeus, Vero E6 miRFP670 cells, with CP100356 (P-gp inhibitor, concentration not stated); p-gp concentration 500 nM

- COC(=O)c1cc(Br)cc2c(Cc3ccc(-c4nnn[nH]4)cc3)c[nH]c12: 36.9 µM

Retrieve CC50 measured for "O=C1Cc2c(cccc2C(=O)Nc2ccc3c(c2)CNC3)N1" and print it.
> 50 µM

Retrieve CC50 measured for "O=C(NC[C@H]1CCCO1)[C@H](Nc1ccc2c(c1)CNC2)c1cc(Cl)cc2[nH]ncc12" and print it.
> 50 µM

Retrieve CC50 measured for "C#C[C@@]1(O)[C@H](O)[C@@H](CO)O[C@H]1n1ccc2c(N)ncnc21" and print it.
> 50 µM

Retrieve CC50 measured for "O=C(Nc1cnc2c(c1)CNC2)c1cc(F)cc2[nH]ncc12" and print it.
> 50 µM

Retrieve CC50 measured for "COC(=O)CNC(=O)[C@H](Nc1ccc2c(c1)CNC2)c1cc(Cl)cc(C2CC2)c1" and print it.
> 50 µM

Retrieve CC50 measured for "O=C(Nc1ccc2c(c1)CNC2)c1cc(F)cc2[nH]ncc12" and print it.
> 50 µM

Retrieve CC50 measured for "N#Cc1cccc(-c2nc3c(C(=O)Nc4ccc5c(c4)CNC5)cc(F)cc3[nH]2)c1" and print it.
29.2 µM

Retrieve CC50 measured for "O=C(Nc1ccc2c(c1)CN[C@H]2CCO)c1cc(F)cc2[nH]ncc12" and print it.
> 50 µM

Retrieve CC50 measured for "NCc1ccc(-c2csc3cc(C(=O)Nc4ccc5c(c4)CNC5)ccc23)cc1" and print it.
31.9 µM

Retrieve CC50 measured for "O=C(NC[C@H]1CCCO1)[C@H](Nc1ccc2c(c1)CNC2)c1cc(Cl)cc(C2CC2)c1" and print it.
39.2 µM

Retrieve CC50 measured for "O=C(NCc1cccnc1)[C@H](Nc1ccc2c(c1)CNC2)c1cc(Cl)cc2[nH]ncc12" and print it.
8.32 µM
